Below, each entry is listed with its recorded Relative GO activity, Permeabilized.
Target: glycolate oxidase (Spinacia oleracea, UniProt P05414)
Construct: expressed in transfected cells; host or cells: Pichia pastoris, single recombinant (NRRL Y-21001) or double recombinant, spray-dried and/or BAC-permeabilised whole cells
Sequence (P05414 1-369): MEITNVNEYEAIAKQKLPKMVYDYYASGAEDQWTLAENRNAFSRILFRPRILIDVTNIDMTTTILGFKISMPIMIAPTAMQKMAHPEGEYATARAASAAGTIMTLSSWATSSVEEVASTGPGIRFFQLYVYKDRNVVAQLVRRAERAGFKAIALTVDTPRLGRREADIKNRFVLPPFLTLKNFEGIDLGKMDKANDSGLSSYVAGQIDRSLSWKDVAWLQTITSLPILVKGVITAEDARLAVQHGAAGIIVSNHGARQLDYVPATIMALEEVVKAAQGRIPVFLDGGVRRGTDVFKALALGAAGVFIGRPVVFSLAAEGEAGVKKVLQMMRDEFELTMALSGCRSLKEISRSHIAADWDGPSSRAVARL
Experiment: Glycolate oxidase (DCIP) assay on Pichia pastoris whole-cell biocatalyst
Assay type: biochemical, spinach
Settings: racemic substrate; permeabilized cells; lactic acid is 100%
Report as a plain number; the unit % is understood.

query: Give Relative GO activity, Permeabilized for O=C(O)C(O)Cc1ccccc1 (racemic)
result: 25

query: Give Relative GO activity, Permeabilized for O=C(O)C(O)Cc1ccc(O)cc1 (stereo not shown) [p-Hydroxyphenyllactic acid]
result: 26

query: Give Relative GO activity, Permeabilized for O=C(O)CO
result: 90

query: Give Relative GO activity, Permeabilized for O=C(O)C(O)CCl (racemic)
result: 100

query: Give Relative GO activity, Permeabilized for CCCCCCCCC(O)C(=O)O (racemic) [2-Hydroxydecanoic acid]
result: 40

query: Give Relative GO activity, Permeabilized for O=C(O)C(O)c1ccccc1 (racemic)
result: 3

query: Give Relative GO activity, Permeabilized for CC(O)C(=O)O (racemic)
result: 100

* * *

Below, each entry is listed with its recorded Relative GO activity, Permeabilized.
target: glycolate oxidase (Spinacia oleracea, UniProt P05414); construct: expressed in transfected cells; host or cells: Pichia pastoris, single recombinant (NRRL Y-21001) or double recombinant, spray-dried and/or BAC-permeabilised whole cells; experiment: Glycolate oxidase (DCIP) assay on Pichia pastoris whole-cell biocatalyst; type: biochemical, spinach; settings: racemic substrate; permeabilized cells; lactic acid is 100%
Report as a plain number; the unit % is understood.

COMPOUND	UNIT_ABBREVIATION	Relative GO activity, Permeabilized
O=C(O)C(O)Cc1c[nH]c2ccccc12 (racemic)	%	18

query: Give Relative GO activity, Permeabilized for CCC(O)C(=O)O (racemic) [2-Hydroxybutyric acid]
result: 91

query: Give Relative GO activity, Permeabilized for CC(C)C(O)C(=O)O (racemic) [2-Hydroxy-3-methylbutyric acid]
result: 1
